Molecular target: mouse serum albumin (mouse, UniProt P07724 25-608, biotin)
Sequence (P07724 25-608): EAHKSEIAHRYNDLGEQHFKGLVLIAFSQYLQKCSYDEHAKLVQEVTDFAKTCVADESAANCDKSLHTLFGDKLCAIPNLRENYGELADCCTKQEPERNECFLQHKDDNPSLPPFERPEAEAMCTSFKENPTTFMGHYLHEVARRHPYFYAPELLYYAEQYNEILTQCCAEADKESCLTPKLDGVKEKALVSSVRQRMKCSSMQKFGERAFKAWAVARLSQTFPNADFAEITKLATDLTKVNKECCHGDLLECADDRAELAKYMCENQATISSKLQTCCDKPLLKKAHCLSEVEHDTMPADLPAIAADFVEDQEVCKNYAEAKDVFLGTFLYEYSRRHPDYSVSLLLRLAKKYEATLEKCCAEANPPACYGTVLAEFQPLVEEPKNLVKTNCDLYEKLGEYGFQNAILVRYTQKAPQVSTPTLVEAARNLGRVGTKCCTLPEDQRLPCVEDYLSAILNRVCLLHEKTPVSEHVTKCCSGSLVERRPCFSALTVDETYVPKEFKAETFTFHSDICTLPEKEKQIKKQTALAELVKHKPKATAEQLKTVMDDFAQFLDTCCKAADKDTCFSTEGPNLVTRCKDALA
Experiment: SPR
READOUT: pKd
Answers are plain numbers, as −log10 of the molar value.

Incoming: GET /values?readout=pKd&item= RLIEDICLPRWGCLWEDD [SA21]
Outgoing: 6.80
